The origin of these recorded values is PubChem BioAssay (NCI).

Test system: HOP-62 NSCLC
PROCEDURE_DETAILS: NCI tumour cell line growth inhibition, 48 h
Give measured TGI for each item. Keep answers brief.

// known answers, use as guide
INSERT INTO assay_data (compound, study_system, metric, result) VALUES
  ('CC1/C=C/[C@@]2(C)CCC(C(C)(C)O)C2C(O)C[C@](C)(O)/C=C/C1 (some centres not stated)', 'HOP-62 NSCLC', 'TGI', '> 100 µM'),
  ('N#CN/C(N)=N/C/N=C(\N)NC#N', 'HOP-62 NSCLC', 'TGI', '> 100 µM'),
  ('O=C(/C=C/c1cccc(Oc2ccccc2)c1)NCc1ccc(C(=O)NCc2ccccc2)cc1', 'HOP-62 NSCLC', 'TGI', '18.8 µM'),
  ('CC(=O)c1ccc2c(c1)C1C=CCC1[C@H](c1cc3c(cc1Br)OCO3)N2 (some centres not stated)', 'HOP-62 NSCLC', 'TGI', '28.9 µM'),
  ('Cc1c2ccncc2cc2c1[nH]c1ccccc12', 'HOP-62 NSCLC', 'TGI', '21.8 µM');

Batch: TGI for all items listed.
1. CC1=NC2=Nc3nc(C)cc[n+]3CN2C=C1
2. COC(=O)c1ccc(/C=C2\Oc3ccccc3C2=O)cc1

Output:
1. > 100 µM
2. > 100 µM

Batch: TGI for all items listed.
1. CCOC(=O)C1=C(Nc2ccc(Cl)cc2Cl)OCC1=O
2. CS(=O)(=O)CCNCc1cc(-c2cc3c(Nc4ccc(OCc5cccc(F)c5)c(Cl)c4)ncnc3s2)cs1
3. COc1ccc(C(c2c(O)c3ccccc3n(-c3ccccc3)c2=O)c2c(O)c3ccccc3n(-c3ccccc3)c2=O)cc1

Output:
["> 100 µM", "> 25 µM", "> 100 µM"]

Batch: TGI for all items listed.
1. c1ccc2c(c1)c1c(n2CCOCCN2CCCC2)CCCC1
2. Cc1ccc(NC(=O)CCc2nc(N)nc(N)c2-c2ccccc2)cc1C
3. COc1ccc(NC(=O)CC2SC(=Nc3ccccc3C)NC2=O)c([N+](=O)[O-])c1 (configuration not stated)

Output:
28.9 µM
> 100 µM
> 100 µM

Batch: TGI for all items listed.
1. COc1ccc2cc(/C=C/C(=O)c3ccc(Cl)cc3Cl)ccc2c1
2. C#C/C=C\CCCC/C=C\C#CC#CCCCC#CC#C[C@H](COS(=O)(=O)O)OS(=O)(=O)O

Output:
> 100 µM
> 100 µM

Batch: TGI for all items listed.
1. CN(C)c1ccc(C=NCC2CCCN3CCCCC23)cc1 (configuration not stated)
2. CN1CN(c2ccccc2)C2(CCN(CC(C)(c3ccc(F)cc3)C3OCCCO3)CC2)C1=O (configuration not stated)
3. CC(=O)N/N=C1\CC(C)(C)C2CCC1C2 (configuration not stated)
4. O=S(=O)(Nc1nc2ccccc2nc1Nc1ccc2ccccc2c1)c1ccccc1
5. Cc1ccc(NC=O)c(-c2c(N)[nH]c(=S)[nH]c2=O)c1
6. O=C1/C(=C\c2cccc(Oc3ccccc3)c2)SC(c2ccccc2)N1c1ccccc1 (configuration not stated)

Output:
1. > 100 µM
2. 30.7 µM
3. > 100 µM
4. 30.8 µM
5. > 100 µM
6. > 100 µM

Input: Given the entry CC(=O)OC12C3C4C1C1C2C3C41OC(C)=O (configuration not stated) , report its measured TGI.
Output: > 100 µM
